# System: M14 melanoma
# run-description: NCI-60 one-dose screen, 48 h
# condition-set: 10 µM
# Description: Growth inhibition of the M14 human tumor cell line is measured as a screen for anti-cancer activity. Cells are grown in 96 well plates and exposed to the test compound for 48 hours. Compounds are tested at a single concentration, which is 10^-5 M for most compounds. The reported endpoint is percent growth (GI% or GIPRCNT), where numbers from 0 - 100% represent growth inhibition, and numbers from -100% - 0 represent cell death. For example, a value of 40 represents 60% growth inhibition. […]
This is part of a sample that, as a whole, favours compounds with a hit. Of some 83,000 tested, about 20% had one in any assay. Activity calls are given as the source filed them. The calls were made as follows: active = growth percent below 10; inactive = the rest.
Thanks in advance; please answer with one of these: YES (active), NO (inactive)

Look over these answered cases.
Cc1ccc(S(=O)(=O)N2CCc3ccccc3CC2)cc1: NO
CCCCCCCCCCSC(=N)N (tested in a mixture with another compound): NO

// outcome(item) with item = COc1ccc(Cn2cc3c(c2-c2cc(OC)c(OC)c(OC)c2)CCc2cnoc2-3)cc1N YES

Write down the call the test reported for this compound. Item: COc1ccc(-c2csc(-c3cc(Cl)cc(Cl)c3Cl)n2)cc1 NO

Recorded test outcome, item O=C1/C(=C/c2ccc(O)cc2)CSc2ccc(Cl)cc21 NO

* * *

# System: SW-620 colon
# run-description: NCI-60 one-dose screen, 48 h (100 = growth as untreated, 0 = no growth, -100 = all killed)
# condition-set: 10 µM
About 83,000 compounds went through this panel and 20% of them were active in at least one assay; those are over-represented in the sample as a whole.
With a cut-off of 50%, any growth strictly below it is called Fulfilled; any growth meeting it or above is called Not fulfilled.

CCCCCCCC/C=C/CCCCCCCCC1=NCCN1CCO: Fulfilled
O=c1oc2cc(OS(=O)(=O)C3CC3)ccc2c2c1CCCCCC2: Not fulfilled
O=C(c1ccc(Cl)cc1)c1no[n+]([O-])c1C(=O)c1ccc(Cl)cc1: Fulfilled
CCOC(=O)c1cc2c(n1Cc1cc(OC)cc(OC)c1)-c1oncc1CC2: Fulfilled
CCOC(=O)Nc1ccc2c(c1)C(=O)N(CCOC)c1ccccc1O2: Fulfilled

Lab note: confirm whether the reported growth for this compound is below 50%, equality not counting. compound: COc1cccc2c1O/C(=C\c1ncc([N+](=O)[O-])n1C)C2=O Fulfilled

Lab note: growth threshold 50%. Does this compound come in strictly under it? CN1CCN(c2nc(-c3cccnc3)nc3sc4c(c23)CCCCCC4)CC1 Not fulfilled

Given COc1ccc2nc(/C=C/c3ccc(N(C)C)cc3)sc2c1 , is recorded growth strictly lower than 50%? Not fulfilled

Lab note: confirm whether the reported growth for this compound is below 50%, equality not counting. compound: COc1ccc(Cn2cc3c(c2-c2cc(OC)c(OC)c(OC)c2)CCc2cnoc2-3)cc1N Fulfilled

Threshold test, growth < 50%: CCSc1nc2c([nH]1)c(=O)n(C)c(=S)n2C Not fulfilled

Lab note: growth threshold 50%. Does this compound come in strictly under it? Cc1cc(OI)c(C(C)C)cc1-c1cc(C(C)C)c(OI)cc1C Not fulfilled

Determine if CCOC(=O)C1=C(Nc2ccc(OC)cc2)C(N)=NC1=N shows growth strictly lower than 50%. Fulfilled

hey, is growth for COc1ccc(CCc2nc3cc(-c4c(C)noc4C)ccc3n2CCN2CCOCC2)cc1 lower than 50% or not? Fulfilled

Given CC(=O)OC1Oc2ccccc2-c2oc(=O)c(-c3ccc(F)cc3)cc21 (centres undefined) , is recorded growth strictly lower than 50%? Fulfilled

For this compound, is growth lower than 50%? O=C(NNc1nc(N2CCCC2)nc(N2CCCC2)n1)c1ccccc1 Not fulfilled

* * *

# System: IGROV1 ovarian
# run-description: NCI-60 one-dose screen, 48 h
# condition-set: 10 µM
About 83,000 compounds went through this panel and 20% of them were active in at least one assay; those are over-represented in the sample as a whole. Activity calls are given as the source filed them. How the source made its calls: active means growth percent below 10; inactive means the rest.
Answer with one of the outcomes class 1 = active, class 0 = inactive

See these solved cases before continuing.
COc1ccc(-c2cc(/C=C3\C(=O)Nc4cc(Cl)ccc43)[nH]n2)cc1OC: class 0
COc1cc(Cl)cc(-c2nn(-c3cccc(NC(=O)Nc4cccc(C(F)(F)F)c4)c3)cc2-c2ccncc2)c1: class 0
O=C(OCc1ncc(-c2ccc(C(F)(F)F)cc2)c(NC2CCCCCC2)n1)c1c(F)c(F)c(F)c(F)c1F: class 0
COc1cc(Nc2ccnc(N3CCN(c4ccnc5cc(Cl)ccc45)CC3)n2)cc(OC)c1: class 1
COc1cc(C(c2c[nH]c3ccccc23)N2CCCC2)ccc1OCc1ccccc1 (stereo not given): class 0
CC(C)C[C@H](NC(=O)Cn1ccc2ccccc2c1=O)B(O)O: class 0
O=C(O)c1cc(C(F)(F)F)cc(C(F)(F)F)c1: class 0
O/N=C1\CCC2CCCCC2C1 (stereo not given): class 0

I would be grateful if you could indicate the recorded call for O=C1/C(=C/c2ccc([N+](=O)[O-])s2)Oc2ccc(Cl)cc21 . class 1

Call for entry Nc1ccc(Sc2ccc3c4c2cccc4c(=O)n2c4ccccc4nc32)cc1 : class 0

* * *

# System: BT-549 breast
# run-description: NCI-60 one-dose screen, 48 h
# condition-set: 10 µM
Compounds without any hit were thinned out: in the full panel of roughly 83,000, 20% have a hit. Active and inactive are the calls of the source. The calls were made as follows: active = growth percent below 10; inactive = the rest.
Choose one outcome from this list and give only that: y for active, n for inactive

What outcome does the record of this test show for Cc1ccc2oc(=O)cc(/C(=C3/C=CC=N3)c3ccc[nH]3)c2c1 ? y

What was the test verdict on O=C(Nc1cccc([N+](=O)[O-])c1)NN1CCCCCC1 ? n

Check the results log: what was the call for Cc1c(C(=O)N[C@H](CO)Cc2ccccc2)[nH]c2ccc(Cl)cc2c1=O ? n

Recorded test outcome, item CCOC(=O)C(=O)Cc1cccnn1 n

Short answer needed: outcome of this test for O=C1NN(c2ccccc2)C(c2cccnc2)=N/C1=C\c1cccnc1 ? n

Dear colleague, could you share the recorded outcome for O=C(CCl)N1c2ccccc2Sc2ccc3ccccc3c21 when you have a moment? y

Fill in: this test's call for NC(=O)c1ccc(Br)o1 is ___ n

I'd appreciate the recorded outcome for COc1ccc(COC(=O)CC(C)C)cc1 from this test. n

Fill in: this test's call for CCCCC(=O)N(c1ccc(Nc2c3ccccc3nc3cc([N+](=O)[O-])ccc23)cc1)S(C)(=O)=O is ___ n

Hi, do you know how Nc1nc2c(ncn2C2OC3COP(=O)(O)OC4C(COP(=O)(O)OC2C3O)OC(n2cnc3c(N)ncnc32)C4O)c(=O)[nH]1 (configuration not stated) came out in this test? n

For COc1ccc(OC)c([N+](=O)[O-])c1C=O , which call appears in the assay record? n

Fill in: this test's call for COc1cc(/C=C/C(=O)c2cc(-c3ccc(C(F)(F)F)cc3)ccc2O)cc(OC)c1OC is ___ n

// param item: Cc1ccc(/C=C2\CN(Cc3cn(CCNc4ccnc5cc(Cl)ccc45)nn3)C/C(=C\c3ccc(C)cc3)C2=O)cc1 ; yields the recorded call y

Which outcome was entered for the compound O=C/C=C/c1ccc([N+](=O)[O-])cc1Cl in this test? n

// outcome(item) with item = C=CCOc1ccc2c(c1)CC[C@@H]1[C@@H]2CC[C@]2(C)C(=O)/C(=N/O)C[C@@H]12 n

Which outcome was assigned to CCOc1cc(Br)c(C(C)NC(=O)c2cccc(OC)c2)cc1OCC (configuration not stated) in this test? n

For C(=C\c1nc2ccccc2s1)/c1ccc(N2CCOCC2)s1 , which call appears in the assay record? n

Call for entry COc1ccc(C2=NNC(c3sc(Cl)nc3Cl)C2)cc1 (configuration not stated) : n

Assay outcome for Cn1c(N)c(N=Cc2ccccc2)c(=O)n(C)c1=O : what was it? n

Please share the test call associated with CC(=O)Nc1ccc2c(c1)C(N1CC3CCC(CC3)C1)c1ccccc1-2 (configuration not stated) . n

# fetch the recorded call for CN(C)c1ccc2cc(-c3cc4c(oc3=O)-c3ccccc3OC4O)c(=O)oc2c1 (configuration not stated) here y

Per the assay record, what outcome was assigned to CN(C1c2ccccc2Oc2ccccc21)S(=O)(=O)c1cc(Cl)ccc1Cl ? n

* * *

# Test system: OVCAR-5 ovarian
# run-description: NCI-60 one-dose screen, 48 h (100 = growth as untreated, 0 = no growth, -100 = all killed)
# condition-set: 10 µM
The panel holds about 83,000 compounds, 20% with a hit somewhere; the sample as a whole holds those more often.
Kindly state growth for each of the entries shown.
Give bare numbers, in %.

For orientation, consider the following solved cases.
CCN(CC)CCn1c(=N)n(CC(O)c2ccc(Cl)c(Cl)c2)c2ccccc21 (stereo not given): 102
C#CCNCCN1C(=O)c2ccc3c4c(ccc(c24)C1=O)C(=O)N(CCNCC#C)C3=O: 68.2
CCOC(=O)c1cc2c(n1Cc1ccccc1)-c1oncc1CC2: 97.4

# batch: return growth for each of the 2 compounds below
1. COc1cc(CSc2nc3ccc(C)cc3c(=O)n2Cc2ccccc2)cc(OC)c1OC
2. COc1cc(C(c2c[nH]c3ccccc23)N2CCCC2)ccc1OCc1ccccc1 (stereo not given)

[45.4, 97.1]
